# Lookup of reported δ(ΔG^0) relative to Adenosine keyed by entry
# Experimental Target: Tg244440 (Toxoplasma gondii, UniProt A0A125YNC9)
# Sequence (A0A125YNC9 1-462): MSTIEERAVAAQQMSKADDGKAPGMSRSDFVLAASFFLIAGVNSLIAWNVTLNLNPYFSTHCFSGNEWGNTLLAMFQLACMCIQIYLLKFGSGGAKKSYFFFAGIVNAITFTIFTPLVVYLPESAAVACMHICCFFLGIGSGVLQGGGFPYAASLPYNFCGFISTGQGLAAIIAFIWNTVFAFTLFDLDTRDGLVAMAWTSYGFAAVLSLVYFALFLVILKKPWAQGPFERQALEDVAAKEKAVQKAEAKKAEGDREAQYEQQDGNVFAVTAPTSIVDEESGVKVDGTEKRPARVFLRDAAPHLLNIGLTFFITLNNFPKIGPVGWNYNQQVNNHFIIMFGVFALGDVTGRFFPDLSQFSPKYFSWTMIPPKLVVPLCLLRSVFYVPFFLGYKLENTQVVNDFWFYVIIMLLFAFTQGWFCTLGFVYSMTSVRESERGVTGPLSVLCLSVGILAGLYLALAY
# Experiment Notes: [3H]-guanine uptake and its inhibition in T. brucei TbNB-KO procyclics expressing Tg244440 (clone F5)
# Type: cell-based
# Condition Info: relative to Adenosine
The response must be a number in kcal/mol with no trailing unit.

{"Compound": "Nc1ccnc2c1ncn2[C@@H]1O[C@H](CO)[C@@H](O)[C@H]1O", "Experimental Target": "Tg244440 (Toxoplasma gondii, UniProt A0A125YNC9)", "δ(ΔG^0) relative to Adenosine, kcal/mol": 0.621}
{"Compound": "OC[C@H]1O[C@@H](n2cnc3cncnc32)[C@H](O)[C@@H]1O", "Experimental Target": "Tg244440 (Toxoplasma gondii, UniProt A0A125YNC9)", "δ(ΔG^0) relative to Adenosine, kcal/mol": 1.17}
{"Compound": "Nc1ncnc2c1ccn2[C@@H]1O[C@H](CO)C[C@H]1O", "Experimental Target": "Tg244440 (Toxoplasma gondii, UniProt A0A125YNC9)", "δ(ΔG^0) relative to Adenosine, kcal/mol": 1.46}

δ(ΔG^0) relative to Adenosine reported for this compound `C[C@H]1O[C@@H](n2cnc3c(N)ncnc32)[C@H](O)[C@@H]1O` : 0.14

// Nc1ncnc2c1ncn2[C@@H]1O[C@H](CO)[C@@H](O)[C@@H]1O [Adenine arabinoside (Ara-A), Adenine arabinoside] : δ(ΔG^0) relative to Adenosine value = 0.896
